tested on: 521955-158-R2-J5-PDC complex spheroid viability; test: Anticancer human tumor 521955-158-R2-J5-PDC patient-derived pancreatic carcinoma cell line growth inhibition [GQUAD]; details: second compound 0.316 µM; first compound 0.00316 µM; hits give low values
Measured viability, T/C, listed per entry for reference.
Write the answer as a number in %, unit excluded.

Here is how some compounds turned out for viability, T/C.
| compound | outputUnit | viability, T/C |
| --- | --- | --- |
| Cc1[nH]c2ccccc2c1CCNCc1ccc(/C=C/C(=O)NO)cc1 + Cc1[nH]c2ccc(F)cc2c1-c1nc2c3cccnc3c3ncccc3c2[nH]1 | % | 108 |
| CC[C@@]1(O)C(=O)OCc2c1cc1n(c2=O)Cc2cc3c(CN(C)C)c(O)ccc3nc2-1 + Cc1[nH]c2ccc(F)cc2c1-c1nc2c3cccnc3c3ncccc3c2[nH]1 | % | 120 |
| CCc1c2c(nc3ccc(O)cc13)-c1cc3c(c(=O)n1C2)COC(=O)[C@]3(O)CC + Cc1[nH]c2ccc(F)cc2c1-c1nc2c3cccnc3c3ncccc3c2[nH]1 | % | 13.3 |
| CCc1c2c(nc3ccc(O)cc13)-c1cc3c(c(=O)n1C2)COC(=O)[C@]3(O)CC + CN(C)c1ccc(Nc2c3ccc(NC(=O)CCN4CCCC4)cc3nc3cc(NC(=O)CCN4CCCC4)ccc23)cc1 | % | 39.3 |
| Cc1[nH]c2ccccc2c1CCNCc1ccc(/C=C/C(=O)NO)cc1 + Cc1cnc(CNC(=O)c2c(=O)c3ccc(N4CCCN(C)CC4)nc3n3c2sc2ccccc23)cn1 | % | 31.2 |

According to the records, this compound CC[C@@]1(O)C(=O)OCc2c1cc1n(c2=O)Cc2cc3c(CN(C)C)c(O)ccc3nc2-1 + Cc1cnc(CNC(=O)c2c(=O)c3ccc(N4CCCN(C)CC4)nc3n3c2sc2ccccc23)cn1 displays viability, T/C of 47.2

Documented viability, T/C of Cc1[nH]c2ccccc2c1CCNCc1ccc(/C=C/C(=O)NO)cc1 + CN(C)c1ccc(Nc2c3ccc(NC(=O)CCN4CCCC4)cc3nc3cc(NC(=O)CCN4CCCC4)ccc23)cc1 : 125

----------
tested on: 521955-158-R2-J5-PDC complex spheroid viability; assay: Anticancer human tumor 521955-158-R2-J5-PDC cell line growth inhibition [GQUAD]; conditions: second compound 1 µM; first compound 0.00316 µM; hits give low values;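 also: spheroids exposed to agents for one week before reading; 100% = DMSO vehicle control viability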
Measured viability, T/C by item
The figure you give is taken to be in %; do not add the unit.

| compound | attributeMeasured | outputUnit | measurement |
| --- | --- | --- | --- |
| CCc1c2c(nc3ccc(O)cc13)-c1cc3c(c(=O)n1C2)COC(=O)[C@]3(O)CC + Cc1cnc(CNC(=O)c2c(=O)c3ccc(N4CCCN(C)CC4)nc3n3c2sc2ccccc23)cn1 | viability, T/C | % | 13.5 |
| CC[C@@]1(O)C(=O)OCc2c1cc1n(c2=O)Cc2cc3c(CN(C)C)c(O)ccc3nc2-1 + CN(C)c1ccc(Nc2c3ccc(NC(=O)CCN4CCCC4)cc3nc3cc(NC(=O)CCN4CCCC4)ccc23)cc1 | viability, T/C | % | 91.6 |
| Cc1[nH]c2ccccc2c1CCNCc1ccc(/C=C/C(=O)NO)cc1 + CN(C)c1ccc(Nc2c3ccc(NC(=O)CCN4CCCC4)cc3nc3cc(NC(=O)CCN4CCCC4)ccc23)cc1 | viability, T/C | % | 114 |
| CC[C@@]1(O)C(=O)OCc2c1cc1n(c2=O)Cc2cc3c(CN(C)C)c(O)ccc3nc2-1 + Cc1cnc(CNC(=O)c2c(=O)c3ccc(N4CCCN(C)CC4)nc3n3c2sc2ccccc23)cn1 | viability, T/C | % | 24.9 |
| Cc1[nH]c2ccccc2c1CCNCc1ccc(/C=C/C(=O)NO)cc1 + Cc1cnc(CNC(=O)c2c(=O)c3ccc(N4CCCN(C)CC4)nc3n3c2sc2ccccc23)cn1 | viability, T/C | % | 21.2 |

// sample CC[C@@]1(O)C(=O)OCc2c1cc1n(c2=O)Cc2cc3c(CN(C)C)c(O)ccc3nc2-1 + Cc1[nH]c2ccc(F)cc2c1-c1nc2c3cccnc3c3ncccc3c2[nH]1 , its viability, T/C was 97

Looking up Cn1ncnc1[C@H]1c2n[nH]c(=O)c3cc(F)cc(c23)N[C@@H]1c1ccc(F)cc1 + CN(C)c1ccc(Nc2c3ccc(NC(=O)CCN4CCCC4)cc3nc3cc(NC(=O)CCN4CCCC4)ccc23)cc1 , I found its viability, T/C recorded as 90.2

Notebook: Cc1[nH]c2ccccc2c1CCNCc1ccc(/C=C/C(=O)NO)cc1 + Cc1[nH]c2ccc(F)cc2c1-c1nc2c3cccnc3c3ncccc3c2[nH]1 , viability, T/C read as 123

What the record says about Cn1ncnc1[C@H]1c2n[nH]c(=O)c3cc(F)cc(c23)N[C@@H]1c1ccc(F)cc1 + Cc1[nH]c2ccc(F)cc2c1-c1nc2c3cccnc3c3ncccc3c2[nH]1 : viability, T/C is 93.7

Cn1ncnc1[C@H]1c2n[nH]c(=O)c3cc(F)cc(c23)N[C@@H]1c1ccc(F)cc1 + Cc1cnc(CNC(=O)c2c(=O)c3ccc(N4CCCN(C)CC4)nc3n3c2sc2ccccc23)cn1 yielded viability, T/C of 25.1

Value of viability, T/C reported for the compound CCc1c2c(nc3ccc(O)cc13)-c1cc3c(c(=O)n1C2)COC(=O)[C@]3(O)CC + Cc1[nH]c2ccc(F)cc2c1-c1nc2c3cccnc3c3ncccc3c2[nH]1 is 11.7

The value of viability, T/C measured for the compound CCc1c2c(nc3ccc(O)cc13)-c1cc3c(c(=O)n1C2)COC(=O)[C@]3(O)CC + CN(C)c1ccc(Nc2c3ccc(NC(=O)CCN4CCCC4)cc3nc3cc(NC(=O)CCN4CCCC4)ccc23)cc1 turned out to be 33.5
